# MEASURED_ON: Cyclin-dependent kinase 4/cyclin D1 (Homo sapiens, UniProt P11802)
# Sequence (P11802 whole entry): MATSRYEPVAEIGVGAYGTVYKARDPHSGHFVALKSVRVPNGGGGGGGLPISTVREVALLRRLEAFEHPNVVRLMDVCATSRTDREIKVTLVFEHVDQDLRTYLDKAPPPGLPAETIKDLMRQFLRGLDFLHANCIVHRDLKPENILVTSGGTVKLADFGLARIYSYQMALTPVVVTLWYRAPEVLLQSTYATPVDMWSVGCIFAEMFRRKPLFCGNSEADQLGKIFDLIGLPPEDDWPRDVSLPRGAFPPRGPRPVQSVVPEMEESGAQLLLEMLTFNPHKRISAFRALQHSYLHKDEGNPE
# Sequence (P24385 whole entry, further chain): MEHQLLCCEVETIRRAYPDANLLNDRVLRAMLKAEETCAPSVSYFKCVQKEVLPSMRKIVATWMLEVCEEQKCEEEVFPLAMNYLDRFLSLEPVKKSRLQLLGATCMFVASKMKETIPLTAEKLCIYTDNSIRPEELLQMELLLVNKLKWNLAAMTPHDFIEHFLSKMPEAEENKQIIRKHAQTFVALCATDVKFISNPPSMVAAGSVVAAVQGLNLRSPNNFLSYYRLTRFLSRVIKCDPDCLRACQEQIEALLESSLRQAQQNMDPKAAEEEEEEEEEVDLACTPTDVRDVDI
# RUN_DESCRIPTION: Inhibitory activity against Cyclin D1-cyclin-dependent kinase 4 in enzymatic assay by measuring phosphorylation of RbING
# Assay type: protein-complex assay
Listed here are compounds together with their documented pIC50.
Value format note: pIC50 is -log10 of concentration (mol/L); just state the number.

Example entries and their recorded answers appear below.
1) Cn1ccc2ccc3c4[nH]c5cc(O)ccc5c4c4c(c3c21)C(=O)NC4=O 7.48
2) COc1ccc2c3c4c(c5c(ccc6ccn(C)c65)c3n(CCCN3CCOCC3)c2c1)C(=O)NC4=O 7.16
3) CCn1ccc2ccc3c(c4c(c5c6ccccc6n(CCCO)c35)C(=O)NC4=O)c21 6.87
4) O=C1NC(=O)c2c1c1c(ccc3cc[nH]c31)c1c2c2ccccc2n1CCCO 7.18
5) COc1ccc2c3c4c(c5c(ccc6ccn(C)c65)c3n(CCCN3CCC(O)CC3)c2c1)C(=O)NC4=O 7.32
6) O=C1NC(=O)c2c1c1c(ccc3cc[nH]c31)c1[nH]c3cc(O)ccc3c21 7.43

The recorded pIC50 for entry `Cn1ccc2ccc3c4[nH]c5cc(C#N)ccc5c4c4c(c3c21)C(=O)NC4=O` equals 7.54

The compound listed as `Cc1ccc2c(c1)[nH]c1c3ccc4ccn(C)c4c3c3c(c21)C(=O)NC3=O` shows pIC50 equal to 7.32

The value of pIC50 measured for the compound `Cc1ccc2[nH]c3c4ccc5ccn(C)c5c4c4c(c3c2c1)C(=O)NC4=O` turned out to be 6.41

The reported measurements were obtained from ChEMBL document CHEMBL1136094.
